molecular target: BAX (Homo sapiens, UniProt Q07812); assay: SMAC mCherry assay in permeabilized Bax-/- Bak-/- BMK cells with recombinant Bax and cBid; conditions: 20 nM Bax, 0.5 nM cBid, 60-80 minutes; read-out: SMAC mCherry I.D IC50
Sequence (Q07812 whole entry): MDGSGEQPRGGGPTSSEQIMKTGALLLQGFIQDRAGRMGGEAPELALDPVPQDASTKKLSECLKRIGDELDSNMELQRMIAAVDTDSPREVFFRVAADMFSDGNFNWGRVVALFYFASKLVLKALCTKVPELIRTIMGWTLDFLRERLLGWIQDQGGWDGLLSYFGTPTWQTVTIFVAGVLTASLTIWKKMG
endpoint name: IC50

Data point: COc1cc2ccnc(Nc3cccc(F)c3)c2cc1NC(=O)CCCN1CCCCC1 ; IC50 = 11 to 50 µM

The reported IC50 of the compound COc1cc2ccnc(Nc3ccc(F)c(Cl)c3)c2cc1NC(=O)CCCN1CCCC1 was 0.1 to 10 µM

Note to self: IC50 recorded for COc1cc2ccnc(Nc3ccc(Cl)c(Cl)c3)c2cc1NC(=O)CCCN1CCCCC1 was 0.1 to 10 µM

Entry O=C(CCCN1CCCCC1)Nc1ccc2ccnc(Nc3ccc(F)c(Cl)c3F)c2c1 , IC50 reported as 0.1 to 10 µM

Summary for this compound, COc1cc2ccnc(Nc3ccc(F)c(C(C)C)c3)c2cc1NC(=O)CCCN1CCCCC1 : IC50 is 11 to 50 µM

According to the records, this compound COc1cc2ccnc(Nc3ccc(F)c(Cl)c3)c2cc1NC(=O)CCCN1CCCCC1 displays IC50 of 0.1 to 10 µM

IC50 in this record for COc1cc2ccnc(Nc3ccc(F)c(Cl)c3)c2cc1NC(=O)CCCN1CCC(F)(F)CC1 : 0.1 to 10 µM

Reported IC50 for COc1cc2ccnc(Nc3ccc(C)cc3)c2cc1NC(=O)CCCN1CCCCC1 was 51 to 100 µM
